Each record here notes measured solubility kinetic.
experiment: Kinetic solubility in aqueous buffer pH 7.4 by total chemiluminescent nitrogen determination (Analiza); conditions: aqueous buffer, pH 7.4, aqueous buffer, kinetic from dmso stock

Reference set (7 entries):
1. CCn1cc(C(=O)O)c(=O)c2c(N)c(F)c(NC3CCCCC3)cc21 [AS1842856] | 6.5 µM
2. CCN1CCN(Cc2ccc(NC(=O)c3ccc(C)c(NC(=O)c4cncc(-c5cccs5)c4)c3)cc2C(F)(F)F)CC1 [ALW-II-41-27] | 3.7 µM
3. N[C@@H](CC(=O)Nc1ccc(Oc2cc(F)c(F)cc2Br)cc1)C(=O)O [WAY 213613] | 148 µM
4. COC(=O)C1=C(C)NC2=C(C(=O)c3ccccc32)C1c1ccccc1OCc1ccccc1F (centres unmarked) [5408-1697] | < 2.1 µM
5. O=c1ncn2nc(Sc3ccc(F)cc3F)ccc2c1-c1c(Cl)cccc1Cl [Neflamapimod (VX-745)] | 48.1 µM
6. O=C(O)CCCc1nc(-c2ccc(Cl)c(Cl)c2)c(-c2ccccc2)o1 [SWE101] | 155 µM
7. C[C@@H](Oc1cc(-c2cnn(C3CCNCC3)c2)cnc1N)c1c(Cl)ccc(F)c1Cl [Crizotinib] | 160 µM

For the next question, use this molecule.
## Task Using the record for CC1(C)CCC(CN2CCN(c3ccc(C(=O)NS(=O)(=O)c4ccc(NCC5CCOCC5)c([N+](=O)[O-])c4)c(Oc4cnc5[nH]ccc5c4)c3)CC2)=C(c2ccc(Cl)cc2)C1 [Venetoclax (ABT-199)] , report its solubility kinetic.
## Result 6.3 µM

---

assay: physchem; details: pH 7.4, aqueous buffer, kinetic from dmso stock
Each record here notes measured solubility kinetic.
API: value field is a number in µM; no unit string.

1) CCN(C)C(=O)Oc1cccc([C@H](C)N(C)C)c1 | 160
2) CCc1cnn2c(NCc3ccc[n+]([O-])c3)cc(N3CCCC[C@H]3CCO)nc12 | 143
3) CNC(=O)c1c(F)cccc1Nc1nc(Nc2cc3c(cc2OC)CCN3C(=O)CN(C)C)nc2[nH]ccc12 [GSK1838705A] | 1

For the next question, use this compound.
## Task Using the record for CN(C)CC1CCOC1(c1ccccc1)c1ccccc1.Cl (stereo not shown) [AN2/AVex-73 HCl (Blarcamesine)] , report its solubility kinetic.
## Result 174

---

tested on: BV2 (mouse microglia) cell line; assay: pHrodo-myelin phagocytosis/cell viability high content imaging assay: viability (cell count, nuclear area, nuclear intensity); conditions: BV2 cells, 10 uM compound, 48 hours treatment
measured-metric: 2. Nuclear Area (% Control)
API: value field is a number in % Control; no unit string.

1) O=C(O)c1cc2nc(-c3ccc(Cl)cc3)cc(C(F)(F)F)n2n1 [UNC10302881A] | 105.9
2) CCN(CC)Cc1ccc(C(=O)N(CCc2ccccc2OC)[C@@H]2CCNC2)cc1.Cl.Cl [UNC10302833A] | 106.1

## Task Using the record for CC(=O)NCC(=O)N1[C@@H]2CC[C@H]1c1ccc(Nc3ncc(C(F)(F)F)c(NC4CCC4)n3)cc12 [UNC10302896A] , report its 2. Nuclear Area (% Control).
## Result 110.7

## Task Another compound to check: CC(C)c1ccc(/C=N/NC(=O)c2ccc(O)cc2)cc1 [UNC10302878A]
## Result 103.1

---

Each record here notes measured solubility kinetic.
assay: Kinetic solubility in aqueous buffer pH 7.4 by total chemiluminescent nitrogen determination (Analiza); conditions: aqueous buffer, pH 7.4, aqueous buffer, kinetic from dmso stock
API: value field is a number in µM; no unit string.

Reference set (6 entries):
1) O=C(CCl)c1ccccc1Nc1cccc(C(F)(F)F)c1 | 40.8
2) CC(C)[C@H](O)C(=O)N[C@@H](C)C(=O)N[C@@H]1C(=O)N(C)CCc2ccccc21 | 176
3) CSc1ccc2c(c1)c(CCN)c(C)n2Cc1ccc(Cl)cc1Cl.Cl | 5.7
4) COc1cc(Nc2ncc(F)c(Nc3ccc4c(n3)N(COP(=O)(O)O)C(=O)C(C)(C)O4)n2)cc(OC)c1OC | 161
5) CCc1ccc(CCOc2ccc(CC3SC(=O)NC3=O)cc2)nc1 (stereo not shown) | 3.2
6) C=CC(=O)Nc1cc2c(Nc3ccc(F)c(Cl)c3)ncnc2cc1OCCCN1CCOCC1 | 11

## Task Using the record for Nc1nc(Nc2ccc3c(c2)CC[C@@H](N2CCCC2)CC3)nn1-c1cc2c(nn1)-c1ccccc1CCC2 , report its solubility kinetic.
## Result 82.9

## Task Another compound to check: N#Cc1ccc(COC[C@H]2O[C@@H](n3c(NCc4ccc(Cl)c(Cl)c4)nc4c(N)ncnc43)[C@H](O)[C@@H]2O)cc1
## Result 14.3

## Task Another compound to check: CC(C)(O)c1coc(S(=O)(=O)NC(=O)Nc2c3c(cc4c2CCC4)CCC3)c1
## Result 119

---

experiment: Kinetic solubility in aqueous buffer pH 7.4 by total chemiluminescent nitrogen determination (Analiza); settings: aqueous buffer, pH 7.4, aqueous buffer, kinetic from dmso stock
Label condition met when solubility kinetic is at or above 6 µM; otherwise label condition not met.

Worked examples, 6 compounds total:
1. Cc1cc(C)nc(NC(=S)N2CCN(c3ccc(C(F)(F)F)cn3)CC2)c1 | condition not met
2. COCCOCCOC(=O)N[C@@H](CC(C)C)C(=O)N[C@@H](Cc1ccccc1)C(=O)C(=O)NC1CC1 | condition met
3. CO[C@H]1C[C@@H]2CC[C@@H](C)[C@@](O)(O2)C(=O)C(=O)N2CCCC[C@H]2C(=O)O[C@H]([C@H](C)C[C@@H]2CC[C@@H](O)[C@H](OC)C2)CC(=O)[C@H](C)/C=C(\C)[C@@H](O)[C@@H](OC)C(=O)[C@H](C)C[C@H](C)/C=C/C=C/C=C/1C | condition met
4. CCCCCCOc1cc2c(cc1N(C)c1ncc(C(=O)O)cn1)C(C)(C)CCC2(C)C | condition met
5. O=C(Nc1ccc2[nH]nc(-c3ccncc3)c2c1)[C@@H]1CCN(CC(=O)N2CCN(c3ccc(-c4ncccn4)cc3)CC2)C1 | condition met
6. CCOC(=O)c1sc(NC(=O)c2ccco2)c(SC#N)c1C | condition not met

From here, focus on the item given below.
## Task Reported solubility kinetic reaches at least 6 µM for Fc1ccc(C(CCCNCC2CCc3[nH]c4ccc(F)cc4c3C2)c2ccc(F)cc2)cc1 (stereo not shown) ?
## Result condition not met

---

Tested on: BV2 (mouse microglia) cell line
Assay: pHrodo-myelin phagocytosis/cell viability high content imaging assay: viability (cell count, nuclear area, nuclear intensity)
Conditions: BV2 cells, 10 uM compound, 48 hours treatment
Procedure: All AD Informer Set compounds were tested in two immortalized microglial cell lines, murine (BV2), and human (HMC3), in a high‐content imaging assay in duplicate by the Chu lab. Experimental details and all data can be found as supporting information files. The role of microglia in AD has been well documented and was thus chosen as a cell type in which to profile the AD Informer Set.[43], [44], [45] […] Cytotoxic effects can be assessed by considering multiple parameters. […]
measured-metric: 3. Nuclear DNA Intensity (% control)
API: value field is a number in % control; no unit string.

Reference set (5 entries):
1) CCc1ccc(S(=O)(=O)c2ccccc2)cc1S(=O)(=O)NCCCN(C)C [UNC10302948A] | 108.0
2) CCC(=C(c1ccc(O)cc1)c1ccc(OCCN(C)C)cc1)c1ccccc1 [UNC10302895A] | 103.4
3) Cc1cc(SCc2sc(-c3ccc(C(F)(F)F)c(F)c3)nc2C)ccc1OCC(=O)O [UNC10302862A] | 104.6
4) Cl.NCCOCCOCCNC(=O)Cc1ccc(Nc2nc(NCc3ccc(F)cc3)nc(NCC3CCCCC3)n2)cc1 [UNC10302950A] | 104.0
5) C[C@@H]1O[C@@H](O[C@H]2[C@H](Oc3cc(O)c4c(c3)O[C@H](c3ccc(O)cc3)CC4=O)O[C@H](CO)[C@@H](O)[C@@H]2O)[C@H](O)[C@H](O)[C@H]1O [UNC10242153A] | 98.8

For the next question, use this compound.
## Task Using the record for Cc1ccccc1NC(=O)CN1C(=O)N/C(=C/c2ccccc2OCc2ccc(C(=O)O)cc2)C1=O [UNC10302882A] , report its 3. Nuclear DNA Intensity (% control).
## Result 96.5

---

tested on: BV2 (mouse microglia) cell line; assay: pHrodo-myelin phagocytosis/cell viability high content imaging assay: viability (cell count, nuclear area, nuclear intensity); conditions: BV2; compound 10 uM; 48 hours treatment
Where a SMILES comes first, the peptide text is derived from it. [ ]: non-standard residue; d: D form. dHyp = O=C(O)[C@H]1C[C@H](O)CN1
Each record here notes measured 1. Cell count (% control).
API: value field is a number in % control; no unit string.

## Task // map CCc1cnn2c(NCc3ccc[n+]([O-])c3)cc(N3CCCC[C@H]3CCO)nc12 [UNC10302845A] to recorded 1. Cell count (% control) (system: BV2 (mouse microglia) cell line)
## Result 16.3

## Task Another compound to check: CC(=O)N[C@H](Cc1ccc(O)cc1)C(=O)N1CCC[C@@H]1C(=O)N1C[C@@H](O)C[C@@H]1C(=O)NCC(=O)N[C@H](C)C(=O)NCC(N)=O [UNC10303110A] (Ac-[dY][dP][dHyp]G[dA]G-NH2)
## Result 113.8
